Below, each entry is listed with its recorded TGI.
Test system: RXF-631 renal
Assay: NCI tumour cell line growth inhibition, 48 h

compound: COc1ccc2[nH]c3c(cnn4cnnc34)c2c1
readout unit: µM
value qualifier: >
TGI: 100
--
compound: Cc1cccc(C(C)(C)C)c1NC(=O)CC1C(=O)Nc2ccccc2S1=O (configuration not stated)
readout unit: µM
value qualifier: >
TGI: 100
--
compound: CCN(CC)CCCCC1CCN(CC(=O)N2c3ccccc3NC(=O)c3ccccc32)CC1
readout unit: µM
value qualifier: >
TGI: 100
--
compound: COc1ncnc2c(NC3OC(CO)C(O)C3O)ncnc12 (configuration not stated)
readout unit: µM
value qualifier: =
TGI: 15.4
--
compound: O=C1/C(=C/c2cccc([N+](=O)[O-])c2)COc2ccccc21
readout unit: µM
value qualifier: =
TGI: 31.7
--
compound: CN1C(c2ccccc2)CC(=Nc2ccccc2)CC1c1ccccc1 (configuration not stated)
readout unit: µM
value qualifier: =
TGI: 67.6
--
compound: CC(C)=CC(=O)Cc1nc2ccccc2[nH]c1=O
readout unit: µM
value qualifier: >
TGI: 100

* * *

Measured TGI values are reported for all entries that follow.
Test system: MALME-3M melanoma
Assay: NCI tumour cell line growth inhibition, 48 h

molecule: Cc1nc2ccccc2nc1NS(=O)(=O)c1ccc(N)cc1
TGI: > 100 µM
//
molecule: O=C(CNC(=O)c1cccc2ccccc12)Nc1ccccc1Oc1cccc(O)c1
TGI: > 25 µM
//
molecule: COC(=O)/C=C/c1cc(OC)c2c(c1)C(C(=O)OC)C(c1ccc(OC)c(OC)c1)O2 (stereo unspecified)
TGI: > 100 µM
//
molecule: CNC(=O)c1cc(Oc2ccc3nc(NC(=O)Nc4ccc(Cl)c(Cl)c4)sc3c2)ccn1
TGI: 3.3 µM
//
molecule: CN(C)c1ccc(C2CC(=O)CC(c3ccc(N(C)C)cc3)C23C(=O)NC(=O)NC3=O)cc1 (stereo unspecified)
TGI: > 25 µM
//
molecule: CN1C(c2ccccc2)CC(=Nc2ccccc2)CC1c1ccccc1 (stereo unspecified)
TGI: 22.9 µM
//
molecule: CC1CN=C(NCc2ccccc2)S1 (stereo unspecified)
TGI: > 100 µM
//
molecule: Cc1ccc2c(c1)C(C1Cc3c(C)cccc3C1=O)OC2=O (stereo unspecified)
TGI: > 100 µM
//
molecule: COc1ccc2c(c1)[nH]c(=O)c1c3cccnc3cn21
TGI: 18.3 µM
//
molecule: N#CCCc1nc2ccc(Br)cc2c(=O)n1-c1ccc(O)c([N+](=O)[O-])c1
TGI: 33.3 µM
//
molecule: O=C(O)C(/C=C/c1ccco1)=N\Nc1nc(-c2ccc(Cl)cc2)cs1
TGI: > 50 µM

* * *

System: HCT-15 colon
Assay: NCI tumour cell line growth inhibition, 48 h

molecule: COc1ccc(-c2ccc(/C=N/n3cn[nH]c3=S)o2)c([N+](=O)[O-])c1
value qualifier: >
TGI, µM: 100

molecule: CCCOc1ccc(/C=C/c2cc(OC)c(OC)c(OC)c2)cc1
value qualifier: =
TGI, µM: 15.1

molecule: N#C/C(=C\c1ccc(Cl)cc1)c1nc2ccccc2c(=O)[nH]1
value qualifier: >
TGI, µM: 100

molecule: CC(=O)OC1[C@H]2c3cc4c(cc3CN3CCC(C[C@@H]1OC(C)=O)C23)OCO4 (stereo partly specified)
value qualifier: >
TGI, µM: 75

molecule: COc1ccc2oc(=N)c(C(N)=S)cc2c1
value qualifier: =
TGI, µM: 36.7

molecule: CCOC(=O)c1cc2c(cc1Cl)SC(N(c1ccc(F)cc1)S(=O)(=O)c1ccc(OC)cc1)=NS2(=O)=O
value qualifier: =
TGI, µM: 27.9

Reference source for all entries: PubChem BioAssay (NCI)
